Values from patent US20210040089A1

- target-system: KRAS G12C (Homo sapiens, UniProt P01116, G12C)
- Construct: HIS-KRAS (G12C, aa 2-185, Sino biological)
- Sequence (P01116 2-185 isoform P01116-2 G12C): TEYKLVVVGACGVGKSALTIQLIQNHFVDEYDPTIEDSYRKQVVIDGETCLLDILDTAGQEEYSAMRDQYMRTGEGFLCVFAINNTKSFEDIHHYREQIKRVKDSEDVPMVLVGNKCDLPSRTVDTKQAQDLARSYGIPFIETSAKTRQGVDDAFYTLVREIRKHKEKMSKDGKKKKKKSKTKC
- method: SOS1 catalyzed nucleotide exchange assay (TR-FRET)
- settings: GDP-loaded HIS-KRAS(G12C), 1 hour pre-incubation with compound
Class membership depends on IC50 alone; the intervals are zone 1 (below 2 nM), zone 2 (2 nM to below 20 nM), zone 3 (20 nM or more)

[[record]]
molecule = "C=CC(=O)N1CCN(c2nc(OCC3(CN(C)C)CC3)nc3c2CCN(c2cccc4sccc24)C3)CC1CC#N (stereo not drawn)"
target_system = "KRAS G12C (Homo sapiens, UniProt P01116, G12C)"
label = "zone 2"

[[record]]
molecule = "Cc1cccc2cccc(N3CCc4c(nc(OCC5(CN(C)C)CC5)nc4N4CCN(C(=O)/C=C/CF)[C@@H](CC#N)C4)C3)c12"
target_system = "KRAS G12C (Homo sapiens, UniProt P01116, G12C)"
label = "zone 1"

[[record]]
molecule = "C=C(F)C(=O)N1CCN(c2nc(OCC3(CN(CC)CC)CC3)nc3c2CCN(c2cccc4cccc(C)c24)C3)CC1CC#N (stereo not drawn)"
target_system = "KRAS G12C (Homo sapiens, UniProt P01116, G12C)"
label = "zone 2"

[[record]]
molecule = "C=CC(=O)N1CCN(c2nc(OCC3(CN(C)C)CC3)nc3c2CCN(c2cccc4scnc24)C3)CC1CC#N (stereo not drawn)"
target_system = "KRAS G12C (Homo sapiens, UniProt P01116, G12C)"
label = "zone 3"

[[record]]
molecule = "C=C(F)C(=O)N1CCN(c2nc(OCC3(CN4CCC4)CC3)nc3c2CCN(c2cccc4cccc(C)c24)C3)CC1CC#N (stereo not drawn)"
target_system = "KRAS G12C (Homo sapiens, UniProt P01116, G12C)"
label = "zone 2"

[[record]]
molecule = "C=CC(=O)N1CCN(c2nc(OCC3CC(N(C)C)C3)nc3c2CCN(c2cccc4ccccc24)C3)CC1CC#N (stereo not drawn)"
target_system = "KRAS G12C (Homo sapiens, UniProt P01116, G12C)"
label = "zone 3"

[[record]]
molecule = "C=C(F)C(=O)N1CCN(c2nc(OCC3(CN4CCC(F)(F)C4)CC3)nc3c2CCN(c2cccc4cccc(C)c24)C3)CC1CC#N (stereo not drawn)"
target_system = "KRAS G12C (Homo sapiens, UniProt P01116, G12C)"
label = "zone 3"

[[record]]
molecule = "C=CC(=O)N1CCN(c2nc(OCC3(CN4CCCC4)CC3)nc3c2CCN(c2cccc4cccc(Cl)c24)C3)CC1CC#N (stereo not drawn)"
target_system = "KRAS G12C (Homo sapiens, UniProt P01116, G12C)"
label = "zone 1"

[[record]]
molecule = "C=CC(=O)N1CCN(c2nc(OCC3(CN4CC(N(C)C)C4)CC3)nc3c2CCN(c2cccc4cccc(C)c24)C3)CC1CC#N (stereo not drawn)"
target_system = "KRAS G12C (Homo sapiens, UniProt P01116, G12C)"
label = "zone 1"

[[record]]
molecule = "Cc1cccc2cccc(N3CCc4c(nc(OCC5(CN(C)C)CC5)nc4N4CCN(C(=O)/C=C/CN(C)C)C(CC#N)C4)C3)c12 (stereo not drawn)"
target_system = "KRAS G12C (Homo sapiens, UniProt P01116, G12C)"
label = "zone 2"

[[record]]
molecule = "Cc1cccc2cccc(N3CCc4c(nc(OCC5(CN(C)C)CC5)nc4N4CCN(C(=O)/C=C/CF)C(CC#N)C4)C3)c12 (stereo not drawn)"
target_system = "KRAS G12C (Homo sapiens, UniProt P01116, G12C)"
label = "zone 1"

[[record]]
molecule = "C=CC(=O)N1CCN(c2nc(OCC3(CN4CCCC4)CCC3)nc3c2CCN(c2cccc4ccccc24)C3)CC1CC#N (stereo not drawn)"
target_system = "KRAS G12C (Homo sapiens, UniProt P01116, G12C)"
label = "zone 3"


====

# IC50 per record follows
- target-system: KRAS G12C (Homo sapiens, UniProt P01116, G12C)
- Construct: HIS-KRAS (G12C, aa 2-185, Sino biological)
- method: SOS1 catalyzed nucleotide exchange assay (TR-FRET)
- settings: GDP-loaded HIS-KRAS(G12C), 1 hour pre-incubation with compound
measured-quantity: IC50 (µM)

[[record]]
compound = "C=CC(=O)N1CCN(c2nc(OCC3(CN(C)C)CC3)nc3c2CCN(c2cccc4cccc(Cl)c24)C3)CC1CC#N (stereo not shown)"
readout_value = 0.00257

[[record]]
compound = "C=CC(=O)N1CCN(c2nc(OCC3CCCC3N(C)C)nc3c2CCN(c2cccc(C)c2C)C3)CC1CC#N (stereo not shown)"
readout_value = 0.0241

[[record]]
compound = "C=CC(=O)N1CCN(c2nc(OC3CCCC(N(C)C)C3)nc3c2CCN(c2cccc4ccccc24)C3)CC1CC#N (stereo not shown)"
readout_value = 1.74

[[record]]
compound = "C=CC(=O)N1CCN(c2nc(OC(C)C3(CN(C)C)CC3)nc3c2CCN(c2cccc4cccc(C)c24)C3)CC1CC#N (stereo not shown)"
readout_value = 0.0281

